TARGET_UNDER_TEST: porcine pancreatic elastase (Sus scrofa, UniProt P00772)
Sequence (P00772 27-266): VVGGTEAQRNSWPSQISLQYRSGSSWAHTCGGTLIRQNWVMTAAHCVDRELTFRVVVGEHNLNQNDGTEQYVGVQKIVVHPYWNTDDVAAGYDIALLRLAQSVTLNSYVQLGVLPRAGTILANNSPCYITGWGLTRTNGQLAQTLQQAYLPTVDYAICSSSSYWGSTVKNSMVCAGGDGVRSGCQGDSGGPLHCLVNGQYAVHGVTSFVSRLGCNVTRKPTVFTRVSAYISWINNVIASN
READOUT_LABEL: IC50
Note to self: number, then unit, no commentary.

Problem: Please list IC50 recorded for the compound `O=c1c2cc(O)c(O)cc2oc2cc(O)c([C@@H]3O[C@H](CO)[C@@H](O)[C@H](O)[C@H]3O)c(O)c12`
Result: 140 µM

---

TARGET_UNDER_TEST: Collagenase from Clostridium histolyticum
ASSAY_PROTOCOL: Spectrophotometric collagenase assay with FALGPA as substrate
DETAILS: FALGPA 0.8 mM, pH 7.5, 15 min preincubation; read-out: concentration leading to a 50% loss of collagenase activity (IC50)
READOUT_LABEL: pIC50
// scale note: pIC50 = -log10(conc_M); give the bare number

Problem: Please tell me the measured pIC50 for O=c1c2cc(O)c(O)cc2oc2cc(O)c([C@@H]3O[C@H](CO)[C@@H](O)[C@H](O)[C@H]3O)c(O)c12 [mangiferin] ; system: Collagenase from Clostridium histolyticum.
Result: 3.60
